- experiment_summary: In vivo pharmacokinetics in rats after IV or PO administration
- Set-up: species or system Sprague Dawley (SD) male rats
- condition_description: male, Sprague Dawley; rat, oral 5 mg/kg; measured as 2d form in plasma; read-out: AUCinfinite (converted)
recorded_metric: AUC (µg·h/mL)
Numeric answer only, unit µg·h/mL assumed.

What measured AUC goes with CC(=NOCc1ccc([N+](=O)[O-])cc1)c1cccc(OCC(=O)O)c1 ?
184

---

- experiment_summary: In vivo pharmacokinetics in rats after IV or PO administration
- Design: species or system Sprague Dawley (SD) male rats
- condition_description: male, Sprague Dawley; rat, oral 5 mg/kg; measured as 2d form in plasma
recorded_metric: half-life (h)
Numeric answer only, unit h assumed.

What measured half-life goes with CC(=NOCc1ccc([N+](=O)[O-])cc1)c1cccc(OCC(=O)O)c1 ?
6.52
